- tested on: EPHB2 (UniProt P29323)
- Sequence (P29323 whole entry, looked up): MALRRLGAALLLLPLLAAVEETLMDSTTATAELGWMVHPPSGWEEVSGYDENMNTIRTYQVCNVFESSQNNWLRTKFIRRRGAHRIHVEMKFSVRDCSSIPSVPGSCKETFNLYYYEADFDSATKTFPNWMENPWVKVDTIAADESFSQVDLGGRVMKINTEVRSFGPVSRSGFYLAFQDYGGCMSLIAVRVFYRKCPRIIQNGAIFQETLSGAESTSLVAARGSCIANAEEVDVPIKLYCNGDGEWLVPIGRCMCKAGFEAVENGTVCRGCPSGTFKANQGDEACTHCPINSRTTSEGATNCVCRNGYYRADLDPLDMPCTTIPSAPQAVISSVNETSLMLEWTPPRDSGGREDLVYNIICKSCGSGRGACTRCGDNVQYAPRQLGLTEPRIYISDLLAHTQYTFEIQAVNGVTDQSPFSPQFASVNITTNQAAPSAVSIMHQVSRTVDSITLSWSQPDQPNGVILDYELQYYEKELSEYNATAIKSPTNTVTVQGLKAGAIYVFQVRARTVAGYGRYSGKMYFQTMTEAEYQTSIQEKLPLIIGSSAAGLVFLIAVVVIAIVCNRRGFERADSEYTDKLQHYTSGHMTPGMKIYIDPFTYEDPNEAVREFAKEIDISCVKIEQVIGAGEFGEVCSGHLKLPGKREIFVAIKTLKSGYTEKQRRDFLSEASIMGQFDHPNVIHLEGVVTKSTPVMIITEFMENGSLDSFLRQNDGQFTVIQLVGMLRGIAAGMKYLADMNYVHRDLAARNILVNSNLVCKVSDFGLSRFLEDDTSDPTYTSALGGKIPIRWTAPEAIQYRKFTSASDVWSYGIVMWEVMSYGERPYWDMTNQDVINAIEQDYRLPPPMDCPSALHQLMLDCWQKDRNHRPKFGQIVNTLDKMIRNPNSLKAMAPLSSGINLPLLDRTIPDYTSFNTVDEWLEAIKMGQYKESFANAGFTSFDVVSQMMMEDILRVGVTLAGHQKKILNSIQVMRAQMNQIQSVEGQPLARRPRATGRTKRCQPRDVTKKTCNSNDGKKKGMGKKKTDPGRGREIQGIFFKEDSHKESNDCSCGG
- protocol details: phosphorylation enrichment, bacterial display (enrichment ratio); higher = better substrate or ligand; peptides without Tyr show the background;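 further: 11-residue human phosphosite peptides and single-mutation variants displayed on the E. coli surface, counted by deep sequencing, each peptide's frequency after selection divided by its frequency in the unselected input library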;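 further: frequency after pTyr selection over input frequency; kinase dosed for 20-30% of maximal phosphorylation in three min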
Assign class by phosphorylation enrichment: not lower than 0.6 means T; lower than 0.6 means F.

Consider the following illustrative entries.
>  <sequence record>
YLQEIHNSNNQ [FGG_Y140_Y140H]

>  <label>
F

$$$$
>  <sequence record>
VVTFSYKPAGN [RBL2_Y544_P547A]

>  <label>
F

$$$$
>  <sequence record>
VYAANYYKLLG [ROR2_Y645_D644N]

>  <label>
T

$$$$
>  <sequence record>
DRFDNYIEKVR [DES_Y122_A120D]

>  <label>
F

$$$$
>  <sequence record>
YGPPQYNMQYS [ERBB2IP_Y977_I979M]

>  <label>
F

$$$$
>  <sequence record>
DMDATYRPMFS [JUP_Y701_YF]

>  <label>
F

$$$$

Dear colleague, could you confirm whether KDHPDYKYQPR [SOX10_Y171] has phosphorylation enrichment at or above 0.6?
F

Dear colleague, could you confirm whether GMTLSYLFREL [NDUFS8_Y74_P79L] has phosphorylation enrichment at or above 0.6?
F

Dear colleague, could you confirm whether AEFGLYGAMVR [VSX2_Y222_YF] has phosphorylation enrichment at or above 0.6?
T

Dear colleague, could you confirm whether IKRIDYEFVEM [ADA_Y84_A83D] has phosphorylation enrichment at or above 0.6?
T

Dear colleague, could you confirm whether MEYLPYGSLRD [JAK2_Y934] has phosphorylation enrichment at or above 0.6?
T

Dear colleague, could you confirm whether YENGEYIIRQG [PRKG1_Y247] has phosphorylation enrichment at or above 0.6?
F

Dear colleague, could you confirm whether PDGVEYLKNNP [GRIN3A_Y831_D835N] has phosphorylation enrichment at or above 0.6?
F
